tested on: K-562 leukemia; assay: NCI tumour cell line growth inhibition, 48 h
Result type: TGI

# Compound, TGI
measured = [
    ("COc1ccc(Cl)cc1Nc1nc(C(F)(F)F)ccc1C(=O)NN", "> 100 µM"),
]

Go through the items and report each one's TGI.
1. CSc1ccc(C2=Nn3c(nnc3-c3ccc(F)c(Cl)c3)SC2)cc1
2. CC(C)=CCC12Cc3ccc(O)cc3C(C(C)CN1)C2C (stereo unspecified)
3. COC(=O)c1nc(NN)[nH]c(=O)c1CCCCCc1c(C(=O)OC)[nH]c(NN)cc1=O
4. O=C1[C@@H](c2ccc(Cl)cc2)[C@H]2CC=C[C@H]2N1O
5. C[C@]12CC[C@@H]3c4ccc(O)c([N+](=O)[O-])c4CC[C@H]3[C@@H]1CC[C@@H]2NS(=O)(=O)c1ccc(C(F)(F)F)cc1
6. COc1ccc([C@H]2CC(=O)N3CCCC3N2)cc1 (stereo partly specified)
7. C[N+]1(CCN=C=NC2CCCCC2)CCOCC1
8. CCc1ccccc1NC(=O)C(=O)C(C(=O)c1ccc(OC)cc1)c1ccc(OC)cc1 (stereo unspecified)

# output
> 100 µM
> 100 µM
> 100 µM
> 100 µM
5.84 µM
> 100 µM
> 100 µM
> 100 µM

Go through the items and report each one's TGI.
1. NCCN(CCN(C(=O)Nc1ccccc1)c1ccccc1)C(=O)Nc1ccccc1
2. CCOC(=O)c1c(NC(=O)c2ccc(C(C)C)cc2)sc2c(CN(C)C)c(O)ccc12
3. O=C(O)C1=NN(c2ccc(S(=O)(=O)O)cc2)C2(C1)C(Cl)C(=O)N2c1nc2ccccc2s1 (stereo unspecified)
4. CC(O)CNC1=CC(=O)C(=O)c2ccccc21 (stereo unspecified)
5. Nc1cc2c3c(cccc3c1)NC2=O
6. CC1(C)OC[C@@H](C[C@H](O)COCc2ccccc2)O1
7. N=C(N)SCc1cn2ccccc2n1

# output
1: > 100 µM; 2: 3.28 µM; 3: 58.5 µM; 4: > 100 µM; 5: > 100 µM; 6: > 100 µM; 7: > 100 µM
